# measuredOn: Acetylcholinesterase (Homo sapiens)
# Sequence (P22303 whole entry): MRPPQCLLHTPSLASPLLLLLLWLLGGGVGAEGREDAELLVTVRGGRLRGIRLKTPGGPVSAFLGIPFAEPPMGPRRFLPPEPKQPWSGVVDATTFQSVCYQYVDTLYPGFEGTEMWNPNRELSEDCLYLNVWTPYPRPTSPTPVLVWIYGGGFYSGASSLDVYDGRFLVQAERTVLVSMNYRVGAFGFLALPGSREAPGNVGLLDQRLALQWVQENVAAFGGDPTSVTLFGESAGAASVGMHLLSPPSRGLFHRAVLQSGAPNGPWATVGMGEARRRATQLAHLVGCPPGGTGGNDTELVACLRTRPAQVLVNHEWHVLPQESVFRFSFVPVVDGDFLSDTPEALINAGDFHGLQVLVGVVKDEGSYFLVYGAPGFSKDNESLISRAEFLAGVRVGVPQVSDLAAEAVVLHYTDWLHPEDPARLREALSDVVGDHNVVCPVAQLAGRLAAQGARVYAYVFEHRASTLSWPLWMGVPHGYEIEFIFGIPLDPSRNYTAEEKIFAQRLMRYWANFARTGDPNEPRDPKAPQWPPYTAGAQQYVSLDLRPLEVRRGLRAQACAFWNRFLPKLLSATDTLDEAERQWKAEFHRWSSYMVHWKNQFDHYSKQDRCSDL
pIC50: −log10 of the molar value.
The label depends only on pIC50: rule met if it is at least 8, rule not met if it is smaller.

moleculeSmiles: CCn1c(C)nc2cc(C(=O)CCC3CCN(Cc4ccccc4)CC3)ccc21
cat: rule met
--
moleculeSmiles: O=C(CCC1CCN(Cc2ccccc2)CC1)c1ccc2c(c1)OCCO2
cat: rule not met
--
moleculeSmiles: O=C(CCC1CCN(Cc2ccccc2)CC1)c1ccc2[nH]c(-c3ccccc3)nc2c1
cat: rule not met

###

# measuredOn: Cholinesterase (Homo sapiens)
# Sequence (P06276 whole entry): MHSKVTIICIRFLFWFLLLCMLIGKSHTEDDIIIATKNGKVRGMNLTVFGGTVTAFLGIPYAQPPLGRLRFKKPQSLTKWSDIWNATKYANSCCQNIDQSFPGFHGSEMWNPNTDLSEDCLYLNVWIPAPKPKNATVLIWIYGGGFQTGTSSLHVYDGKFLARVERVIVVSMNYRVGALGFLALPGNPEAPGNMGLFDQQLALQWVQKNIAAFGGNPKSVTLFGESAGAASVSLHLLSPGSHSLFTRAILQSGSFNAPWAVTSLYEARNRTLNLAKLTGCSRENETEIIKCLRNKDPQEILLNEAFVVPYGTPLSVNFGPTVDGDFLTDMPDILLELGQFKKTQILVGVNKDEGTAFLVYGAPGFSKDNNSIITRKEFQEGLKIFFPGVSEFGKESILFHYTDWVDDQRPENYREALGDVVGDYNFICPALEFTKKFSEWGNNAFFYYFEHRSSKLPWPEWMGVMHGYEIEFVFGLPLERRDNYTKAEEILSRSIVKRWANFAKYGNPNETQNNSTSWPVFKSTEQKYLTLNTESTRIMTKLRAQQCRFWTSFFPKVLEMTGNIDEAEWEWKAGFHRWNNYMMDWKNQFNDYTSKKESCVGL
Rule: IC50 below 4 µM gives Satisfied, anything at or above gives Not satisfied.

moleculeSmiles: O=C(CCC1CCN(Cc2ccccc2)CC1)c1ccc2[nH]c(-c3ccccc3)nc2c1
cat: Satisfied
//
moleculeSmiles: O=C(CCC1CCN(Cc2ccccc2)CC1)c1ccccc1
cat: Not satisfied
//
moleculeSmiles: Cc1nc2cc(C(=O)CCC3CCN(Cc4ccccc4)CC3)ccc2[nH]1
cat: Not satisfied
//
moleculeSmiles: Cc1nc2ccc(C(=O)CCC3CCN(Cc4ccccc4)CC3)cc2s1
cat: Satisfied
//
moleculeSmiles: O=C(CCC1CCN(Cc2ccccc2)CC1)c1ccc2c(c1)OCCO2
cat: Not satisfied
//
moleculeSmiles: CCn1c(C)nc2cc(C(=O)CCC3CCN(Cc4ccccc4)CC3)ccc21
cat: Not satisfied
